system: ACHN renal; test: NCI-60 one-dose screen, 48 h (100 = growth as untreated, 0 = no growth, -100 = all killed); settings: 10 µM unless noted
About 83,000 compounds went through this panel and 20% of them were active in at least one assay; those are over-represented in the sample as a whole.
Quick rule: growth of at least 20% means Fulfilled, below that means Not fulfilled.

Task: Has `O=C(NNC(=S)Nc1ccccc1)c1ccccn1` a recorded growth greater than or equal to 20%?
Result: Not fulfilled

Task: Same lookup for Cc1cc(Cl)ccc1OC(C)C(=O)Nc1nnc(C2CC2)s1 (centres undefined) , please.
Result: Fulfilled

Task: Repeat for the following molecule: `Cc1c(C(=O)NCc2ccccc2)[n+](=O)c2cc(F)ccc2n1[O-]`
Result: Fulfilled

Task: What would you report for `Cc1sc(N=Nc2ccc(N(C)C)cc2)[n+]([O-])c1C` ?
Result: Fulfilled

Task: // repeat for `CC[C@H](C)[C@H]1NC(=O)[C@@H](N[C@](C)(O)[C@@H](N)CC(C)C)[C@@H](C)OC(=O)[C@H](Cc2ccc(OC)cc2)N(C)C(=O)[C@@H]2CCCN2C(=O)[C@H](CC(C)C)NC(=O)[C@@H](C)C(=O)[C@H](C(C)C)OC(=O)C[C@@H]1O` and report
Result: Not fulfilled

Task: Try `COc1cccc(-n2cc(-c3nc(Cl)c4ccccc4n3)nn2)c1` next.
Result: Fulfilled
